# testTarget: Non-tagged RhoA bound to GTPγS (human, UniProt P61586 1-193)
# Sequence (P61586 whole entry): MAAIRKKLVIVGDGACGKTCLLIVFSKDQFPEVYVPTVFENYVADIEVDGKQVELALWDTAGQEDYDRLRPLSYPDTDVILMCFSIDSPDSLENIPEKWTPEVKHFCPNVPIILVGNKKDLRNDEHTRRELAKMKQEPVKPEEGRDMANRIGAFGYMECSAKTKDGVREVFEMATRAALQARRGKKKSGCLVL
# experimentalProtocol: ITC
parameter: pKd
# pKd: negative log10 of molar concentration; output just the value

Observe how each entry below is paired with its result.
{"binder": "PH domain of AKAP-Lbc (domain or fragment, UniProt Q12802 2192-2333, looked up) VASYEKKVRLNEIYTKTDSKSIMRMKSGQMFAKEDLKRKKLVRDGSVFLKNAAGRLKEVQAVLLTDILVFLQEKDQKYIFASLDQKSTVISLKKLIVREVAHEEKGLFLISMGMTDPEMVEVHASSKEERNSWIQIIQDTIN", "parameter": "pKd", "quantitativeResult": 5.51}
{"binder": "PH domain of human PDZRhoGEF (residues 927-1085) with C-terminal His6 (domain or fragment, UniProt O15085 927-1085, looked up) TENRHRLEGYQKRLDATALERASNPLAAEFKSLDLTTRKMIHEGPLTWRISKDKTLDLHVLLLEDLLVLLQKQDEKLLLKCHSKTAVGSSDSKQTFSPVLKLNAVLIRSVATDKRAFFIICTSKLGPPQIYELVALTSSDKNTWMELLEEAVRNATRHP", "parameter": "pKd", "quantitativeResult": 5.92}

Now, please, on to the next binder.
Request: For the binder PH domain of p114RhoGEF (domain or fragment, UniProt Q6P9R4 723-825, looked up) QLHLEGALCWKSTSGRLKDVLAVLLTDVLLLLQEKDQKYVFASVDSKPPVISLQKLIVREVANEEKAMFLISASMQGPEMYEMYTSSKEDRNIWMAHIRRAVE , what pKd is on record?
Result: 4.89
